B1: library; a variant is named by its letters at N, in order (parent)
chain: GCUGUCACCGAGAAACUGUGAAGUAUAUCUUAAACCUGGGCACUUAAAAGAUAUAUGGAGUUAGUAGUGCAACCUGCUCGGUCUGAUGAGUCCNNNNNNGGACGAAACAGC

Variants of: B1
Assay: normalized RNA/DNA level with ligand (relative to sTRSVctl = 100) (log10 (% of sTRSVctl)); HEK293T; ligand: cyclic di-GMP (c-di-GMP-II aptamer); ligand concentration (+) RNA-Seq: 1 mM; higher = less ribozyme self-cleavage, higher mRNA level
Settings: reporter: mCherry (pCS4076), ligand present: yes
# reported normalized RNA/DNA level with ligand (log10); entries follow
Write no unit; give the number alone.

Guide cases for normalized RNA/DNA level with ligand (log10), answers given:
{"columns": ["Var", "Readout number"],
 "data": [
  ["UGAGUG", 1.83],
  ["UACAGA", 1.75]
]}

**Q:** Please indicate normalized RNA/DNA level with ligand (log10) recorded for ACACAC
**A:** 1.81

**Q:** Please indicate normalized RNA/DNA level with ligand (log10) recorded for AGUUAU
**A:** 1.86

**Q:** Please indicate normalized RNA/DNA level with ligand (log10) recorded for AGAUAA
**A:** 1.65

**Q:** Please indicate normalized RNA/DNA level with ligand (log10) recorded for GUAAGA
**A:** 1.61

**Q:** Please indicate normalized RNA/DNA level with ligand (log10) recorded for AGAACA
**A:** 1.72

**Q:** Please indicate normalized RNA/DNA level with ligand (log10) recorded for CUGAGG
**A:** 1.88

**Q:** Please indicate normalized RNA/DNA level with ligand (log10) recorded for CUAGCC
**A:** 1.83

**Q:** Please indicate normalized RNA/DNA level with ligand (log10) recorded for ACAUGA
**A:** 1.53

**Q:** Please indicate normalized RNA/DNA level with ligand (log10) recorded for UUGCUG
**A:** 1.84

**Q:** Please indicate normalized RNA/DNA level with ligand (log10) recorded for CCACGA
**A:** 1.74

**Q:** Please indicate normalized RNA/DNA level with ligand (log10) recorded for AUUUUU
**A:** 1.89
